# assay-target: RBG Protein/E7 (Homo sapiens, UniProt P06400)
# Sequence (P06400 whole entry): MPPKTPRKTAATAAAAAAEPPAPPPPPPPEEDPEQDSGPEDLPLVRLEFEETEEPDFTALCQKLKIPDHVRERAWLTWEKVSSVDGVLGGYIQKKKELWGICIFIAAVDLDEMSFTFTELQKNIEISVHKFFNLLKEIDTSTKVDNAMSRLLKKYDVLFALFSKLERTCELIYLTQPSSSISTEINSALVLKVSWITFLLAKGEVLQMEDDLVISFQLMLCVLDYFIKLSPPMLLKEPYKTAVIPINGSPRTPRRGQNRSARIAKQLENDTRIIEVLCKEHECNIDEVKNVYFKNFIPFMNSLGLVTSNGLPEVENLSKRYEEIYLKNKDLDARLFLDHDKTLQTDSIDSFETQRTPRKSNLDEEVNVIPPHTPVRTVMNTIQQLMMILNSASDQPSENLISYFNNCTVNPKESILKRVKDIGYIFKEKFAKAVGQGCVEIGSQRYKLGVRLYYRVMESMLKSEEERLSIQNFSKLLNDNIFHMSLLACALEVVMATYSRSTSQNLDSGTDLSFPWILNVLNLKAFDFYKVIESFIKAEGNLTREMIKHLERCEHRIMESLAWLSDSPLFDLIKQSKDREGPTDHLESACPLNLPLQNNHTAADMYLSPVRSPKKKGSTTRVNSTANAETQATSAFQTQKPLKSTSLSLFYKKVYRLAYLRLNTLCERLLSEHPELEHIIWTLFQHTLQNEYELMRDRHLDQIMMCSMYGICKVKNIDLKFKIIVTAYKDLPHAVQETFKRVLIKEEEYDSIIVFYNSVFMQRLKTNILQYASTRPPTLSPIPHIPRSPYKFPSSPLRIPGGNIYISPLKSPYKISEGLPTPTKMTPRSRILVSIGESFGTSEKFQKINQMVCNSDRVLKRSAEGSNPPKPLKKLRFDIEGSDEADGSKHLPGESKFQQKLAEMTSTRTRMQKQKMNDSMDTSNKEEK
# assay: Plate binding assay for E7/RBG protein association (E7-coated plate, 35S-labelled RBG protein)
# Parameters: made in house; host or cells: rabbit reticulocyte lysate (RB, in vitro translation)
# condition-description: average of at least two experiments, triplicate; read-out: PLATE ASSAY RBG Protein/E7 IC₅₀
No end group written: not given here.
parameter: IC50 (nM)
Give bare numbers, in nM.

substance: TDLYCYEQ-NH2 [Peptide 5, [Gln27]]-E7-(20-27)-AMIDE]
IC50, nM: 9100
--
substance: TDLFCYEQLN-NH2 [Peptide 19, [Phe²³]-E7-(20-29)-AMIDE]
IC50, nM: 600
--
substance: E7-(14-29)-AMIDE (DLQPETTDLYCYEQLN-NH2; UniProt P03129 14-29, looked up, fragment) [Peptide 7]
IC50, nM: 80
--
substance: Ac-LYCYEQLNDSS-NH2 [Peptide 15, N-Ac-E7-(22-32)-AMIDE]
IC50, nM: 25000
--
substance: TDLYCYE-NH2 [Peptide 6, E7-(20-26)-AMIDE]
IC50, nM: 3300

List IC50 for every entry below, keeping the order given.
1. E7-(18-29)-AMIDE (ETTDLYCYEQLN-NH2; UniProt P03129 18-29, looked up, fragment) [Peptide 8]
2. TDLYCYEQL-NH2 [Peptide 4, E7-(20-28)-AMIDE]

1. 60
2. 700
